Each recorded value in this set is attributed to patent US20260201064A1.

Provide the recorded koff for the entries that follow.
Target: T1, recombinant human ASM protein (human, UniProt P17405 47-630)
T1 construct: Recombinant human ASM in solution; also called acid sphingomyelinase (ASM) protein
T1 sequence: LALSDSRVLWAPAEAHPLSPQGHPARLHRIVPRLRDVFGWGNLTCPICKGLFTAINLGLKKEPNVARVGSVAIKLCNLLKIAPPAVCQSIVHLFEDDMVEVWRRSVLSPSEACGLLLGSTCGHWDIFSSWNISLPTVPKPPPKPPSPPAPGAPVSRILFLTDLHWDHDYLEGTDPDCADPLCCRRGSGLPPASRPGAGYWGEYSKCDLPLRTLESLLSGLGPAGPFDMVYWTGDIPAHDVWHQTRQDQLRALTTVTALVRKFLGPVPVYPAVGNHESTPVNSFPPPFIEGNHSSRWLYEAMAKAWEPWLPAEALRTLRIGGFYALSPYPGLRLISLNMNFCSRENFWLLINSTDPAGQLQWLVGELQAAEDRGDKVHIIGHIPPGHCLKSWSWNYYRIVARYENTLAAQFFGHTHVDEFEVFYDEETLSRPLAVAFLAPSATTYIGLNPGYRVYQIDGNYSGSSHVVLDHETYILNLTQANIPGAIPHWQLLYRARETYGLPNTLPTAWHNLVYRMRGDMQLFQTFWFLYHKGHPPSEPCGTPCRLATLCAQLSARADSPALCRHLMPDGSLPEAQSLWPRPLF
Assay: BLI (Octet), antibody on AHC sensor
Numbers only, in s⁻¹.

Could you report koff for every entry in the following list?
1. #9104v-H19 (antibody, human IgG4 S228P, lambda, V domains shown, Full-length IgG, lambda) VH: EVQLLESGGGLVQPGGSLRLSCAASGFTFSNYYMSWVRQAPGKGLEWVSGIYYGSGVPYYADSVKGRFTISRDNSKNTLYLQMNSLRAEDTAVYYCARDTPGFDYWGQGTLVTVSS VL: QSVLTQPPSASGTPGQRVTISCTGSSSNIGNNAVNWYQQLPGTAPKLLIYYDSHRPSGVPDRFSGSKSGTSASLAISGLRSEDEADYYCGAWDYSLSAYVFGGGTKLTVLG
2. #9104v-H11 (antibody, human IgG4 S228P, lambda, V domains shown, Full-length IgG, lambda) VH: EVQLLESGGGLVQPGGSLRLSCAASGFTFSNYYMSWVRQAPGKGLEWVSGIYYGSGIPYYADSVKERFTISRDNSKNTLYLQMNSLRAEDTAVYYCARDTPGFDYWGQGTLVTVSS VL: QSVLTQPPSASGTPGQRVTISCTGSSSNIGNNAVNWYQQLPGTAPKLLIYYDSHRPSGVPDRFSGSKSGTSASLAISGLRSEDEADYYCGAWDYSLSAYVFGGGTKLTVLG
3. #9104v-H25 (antibody, human IgG4 S228P, lambda, V domains shown, Full-length IgG, lambda) VH: EVQLLESGGGLVQPGGSLRLSCAASGFTFSNYYMSWVRQAPGKGLEWVSGTYYASGGIYYADSVKGRFTISRDNSKNTLYLQMNSLRAEDTAVYYCARDTPGFDYWGQGTLVTVSS VL: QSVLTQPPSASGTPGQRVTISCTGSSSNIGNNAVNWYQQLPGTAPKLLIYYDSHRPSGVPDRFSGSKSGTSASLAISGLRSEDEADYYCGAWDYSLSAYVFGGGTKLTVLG
4. #9104v-H17 (antibody, human IgG4 S228P, lambda, V domains shown, Full-length IgG, lambda) VH: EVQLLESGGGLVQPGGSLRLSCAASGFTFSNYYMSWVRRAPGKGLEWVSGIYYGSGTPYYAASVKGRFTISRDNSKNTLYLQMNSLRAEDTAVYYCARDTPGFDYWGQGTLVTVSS VL: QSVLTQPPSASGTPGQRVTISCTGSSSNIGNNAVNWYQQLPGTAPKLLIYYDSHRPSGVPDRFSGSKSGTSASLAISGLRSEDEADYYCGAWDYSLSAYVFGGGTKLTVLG
5. #9104v-H31 (antibody, human IgG4 S228P, lambda, V domains shown, Full-length IgG, lambda) VH: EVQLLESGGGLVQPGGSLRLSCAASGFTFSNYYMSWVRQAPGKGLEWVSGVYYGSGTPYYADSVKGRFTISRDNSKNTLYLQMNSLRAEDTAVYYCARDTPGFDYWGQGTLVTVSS VL: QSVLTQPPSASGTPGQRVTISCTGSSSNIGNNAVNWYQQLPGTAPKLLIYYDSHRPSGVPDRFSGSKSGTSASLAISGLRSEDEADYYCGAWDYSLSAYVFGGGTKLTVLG
6. #9104v-H27 (antibody, human IgG4 S228P, lambda, V domains shown, Full-length IgG, lambda) VH: EVQLLESGGGLVQPGGSLRLSCAASGFTFSNYYMSWVRQAPGKGLEWVSGTYYDSGYVYYADSVKGRFTISRDNSKNTLYLQMNSLRAEDTAVYYCARDTPGFDYWGQGTLVTVSS VL: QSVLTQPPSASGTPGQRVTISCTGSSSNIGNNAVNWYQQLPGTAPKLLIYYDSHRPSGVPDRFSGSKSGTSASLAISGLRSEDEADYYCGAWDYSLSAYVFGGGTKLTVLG
7. #9104v-H10 (antibody, human IgG4 S228P, lambda, V domains shown, Full-length IgG, lambda) VH: EVQLLESGGGLVQPGGSLRLSCAASGFTFSNYYMSWVRQAPGKGLEWVSGIYYGNGIPYYADSVKDRFTISRDNSKNTLYLQMNSLRAEDTAVYYCARDTPGFDYWGQGTLVTVSS VL: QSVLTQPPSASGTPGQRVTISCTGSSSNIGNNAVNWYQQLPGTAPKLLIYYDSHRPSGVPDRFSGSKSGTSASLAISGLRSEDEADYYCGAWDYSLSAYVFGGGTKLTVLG
8. #9104v-H18 (antibody, human IgG4 S228P, lambda, V domains shown, Full-length IgG, lambda) VH: EVQLLESGGGLVQPGGSLRLSCAASGFTFSNYYMSWVRQAPGKGLEWVSGIYYGSGTPYYSDSVKGRFTISRDNSKNTLYLQMNSLRAEDTAVYYCARDTPGFDYWGQGTLVTVSS VL: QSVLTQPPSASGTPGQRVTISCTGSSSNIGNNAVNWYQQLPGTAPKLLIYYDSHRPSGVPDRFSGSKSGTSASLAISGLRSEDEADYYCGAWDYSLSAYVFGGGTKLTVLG

[reply]
[0.000184, 0.000195, 0.00019, 0.000243, 0.000141, 0.000165, 0.000154, 0.000264]

Could you report koff for every entry in the following list?
1. #9104v-H13 (antibody, human IgG4 S228P, lambda, V domains shown, Full-length IgG, lambda) VH: EVQLLESGGGLVQPGGSLRLSCAASGFTFSNYYMSWVRQAPGKGLEWVSGIYYGSGIPYYANSVKGRFTISRDNSKNTLYLQMNSLRAEDTAVYYCARDTPGFDYWGQGTLVTVSS VL: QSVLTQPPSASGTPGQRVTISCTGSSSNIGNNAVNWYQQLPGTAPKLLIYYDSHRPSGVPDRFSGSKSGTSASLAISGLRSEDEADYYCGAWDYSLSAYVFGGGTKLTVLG
2. #9104v-H26 (antibody, human IgG4 S228P, lambda, V domains shown, Full-length IgG, lambda) VH: EVQLLESGGGLVQPGGSLRLSCAASGFTFSNYYMSWVRQAPGKGLEWVSGTYYASGNAYYADSVKGRFTISRDNSKNTLYLQMNSLRAEDTAVYYCARDTPGFDYWGQGTLVTVSS VL: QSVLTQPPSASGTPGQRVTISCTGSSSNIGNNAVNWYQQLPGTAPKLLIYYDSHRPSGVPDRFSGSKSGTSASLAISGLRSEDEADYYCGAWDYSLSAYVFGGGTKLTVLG

[reply]
1. 0.000185
2. 0.000305
